All values here come from the RNAGym collection of RNA variant scans (doi:10.7554/elife.90254).

B1: LINE1-full (parent)
chain: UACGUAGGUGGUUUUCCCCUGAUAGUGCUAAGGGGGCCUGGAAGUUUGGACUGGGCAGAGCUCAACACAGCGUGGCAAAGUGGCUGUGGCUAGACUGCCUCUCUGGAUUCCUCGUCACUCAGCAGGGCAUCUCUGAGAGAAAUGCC

# Variants of: B1
# Assay text: self-cleavage, relative activity (ratio to wild type); higher = more cleavage; in vitro, sequencing; the parent is a self-cleaving ribozyme
Catalogue of self-cleavage values
Result type: self-cleavage

INSERT INTO results (mutation_descriptor, recorded_value) VALUES
  ('U96A C116A', 0.21),
  ('U115C A136U', 1.99),
  ('G36C A141G', 1.36),
  ('A6U U104C', 1.02),
  ('U46A C146U', 1.63),
  ('U85A U112C', 0.04),
  ('U85A U143C', 0.11),
  ('A2U U87A', 0.08),
  ('A94G U134C', 0.44),
  ('G53A U108C', 1.97),
  ('U102C A121G', 1.06),
  ('U85G A136G', 0),
  ('U47G G48U', 0.74),
  ('U46A U104A', 0.9),
  ('A24U U143C', 1.63),
  ('U9C U14A', 1.17),
  ('U52C A138C', 1.62),
  ('C90U U132C', 0.03),
  ('U29G U47A', 1.41),
  ('A42U U143C', 0.94),
  ('C28U U39C', 0.97),
  ('U91C A107G', 0.73),
  ('U102C U104A', 1.52),
  ('A117G U143A', 0.83),
  ('U13A U62A', 0.06),
  ('U13A U29A', 0.42),
  ('U15C A142G', 1.41),
  ('U85A C98U', 0.09),
  ('A92C A129G', 0),
  ('U13C A59U', 0.86),
  ('U9A A67G', 0.58),
  ('C19A U112C', 1.55),
  ('U12A G49A', 1.05),
  ('A43C A136U', 1.64),
  ('G58A U81C', 0.05),
  ('U119C G144A', 1.26),
  ('A94G A138U', 0.36),
  ('G34C U115C', 1.82),
  ('U12G U46C', 1.29),
  ('G53U U115C', 1.91);
